Entry source: PubChem BioAssay AID1240

# target_entity: Bcl-2-like protein 10 (Homo sapiens) (UniProt Q9HD36)
# Sequence (Q9HD36 whole entry, looked up): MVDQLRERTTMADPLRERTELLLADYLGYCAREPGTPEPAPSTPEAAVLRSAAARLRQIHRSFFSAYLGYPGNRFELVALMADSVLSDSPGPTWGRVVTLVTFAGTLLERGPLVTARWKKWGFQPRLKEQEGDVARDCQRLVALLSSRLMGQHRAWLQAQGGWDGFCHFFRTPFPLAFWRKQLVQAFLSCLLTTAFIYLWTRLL
# protocol: TR3 peptide-Bcl-B binding displacers, biochemical primary FP assay, phenotype converters (AID 1240);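 note: 0% = Bcl-B with tracer peptide and DMSO and 100% = tracer peptide lacking Bcl-B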
# run_conditions: GST-Bcl-B / FITC-TR3 peptide fluorescence polarization; stronger effect = higher value; compound at 3.75 mg/L
The whole screen tested about 50,000 compounds, of which about 800 (1.6%) showed an effect of 50% or more. Shown is part of a subset that was picked to be rich in strong results.

- chemical_structure: "NC(=O)c1ccccc1NC(=O)c1ccc(I)cc1"
  units_text: "%"
  displacement: 7.7
- chemical_structure: "COc1ccc(C2=C/C(=C/c3cccs3)C(=O)O2)cc1"
  units_text: "%"
  displacement: 7.8
- chemical_structure: "COc1ccc(NC(=O)CCN2C(=O)/C(=C/c3ccc(F)cc3)SC2=S)cc1"
  units_text: "%"
  displacement: 12.3

====

# target_entity: Bcl-2-like protein 10 (Homo sapiens)
# protocol: TR3 peptide-Bcl-B binding displacers, biochemical primary FP assay, phenotype converters (AID 1240);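 note: 0% = Bcl-B with tracer peptide and DMSO and 100% = tracer peptide lacking Bcl-B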
# run_conditions: GST-Bcl-B / FITC-TR3 peptide fluorescence polarization; stronger effect = higher value; compound at 3.75 mg/L
The campaign covered roughly 50,000 compounds. About 800 (1.6%) showed an effect of 50% or more. The entries come from a sample that favours strong results as a whole.

- compound: "O=C1S/C(=C\\c2ccc(Br)cc2)C(=O)N1c1ccc(Cl)cc1"
  units_text: "%"
  displacement: -3.3
- compound: "COC(=O)C1=NN(C(C)=O)C(O)(c2ccccc2)C1 (stereo not drawn)"
  units_text: "%"
  displacement: 2.1
- compound: "O=C(N/N=C/c1cccs1)C1CC(=O)N(c2ccccc2)C1 (stereo not drawn)"
  units_text: "%"
  displacement: 25
- compound: "O=c1c2c(nc3cc(-c4cccs4)[nH]n13)CCS2"
  units_text: "%"
  displacement: 75.8
- compound: "CCOc1ccc(NC(=O)CC2S/C(=N\\N=C\\c3ccc(O)c(OC)c3)NC2=O)cc1 (stereo not drawn)"
  units_text: "%"
  displacement: 9.6
- compound: "O=C1S/C(=C\\c2ccc(Br)o2)C(=O)N1c1ccc(Cl)c(Cl)c1"
  units_text: "%"
  displacement: -3.9
- compound: "CN(C)/C=C1\\C=C2C(=O)c3ccccc3N2C1=O"
  units_text: "%"
  displacement: 162
- compound: "Cc1csc(Nc2ccccc2)[n+]1CCO"
  units_text: "%"
  displacement: 4.4

====

# target_entity: Bcl-2-like protein 10 (Homo sapiens)
# protocol: TR3 peptide-Bcl-B binding displacers, biochemical primary FP assay, phenotype converters (AID 1240);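 note: 0% = Bcl-B with tracer peptide and DMSO and 100% = tracer peptide lacking Bcl-B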
# run_conditions: GST-Bcl-B / FITC-TR3 peptide fluorescence polarization; stronger effect = higher value; compound at 3.75 mg/L
The campaign covered roughly 50,000 compounds. About 800 (1.6%) showed an effect of 50% or more. The sample as a whole holds a higher share of strong results than the screen did.
Listing of recorded displacement by entry.

- compound: "Cc1ccc2nsnc2c1NC(=O)c1ccc(-c2cccc([N+](=O)[O-])c2)o1"
  units_text: "%"
  displacement: 105
- compound: "COc1ccc(C(=O)NNC(=O)c2cccc(C)c2O)cc1OC"
  units_text: "%"
  displacement: -1.1
- compound: "COc1ccc(-n2c(=O)c3c4c(sc3n3c(SCCC(C)C)nnc23)CCCC4)cc1"
  units_text: "%"
  displacement: 89.8
- compound: "COc1ccc(CSCC(=O)O)cc1C(=O)O"
  units_text: "%"
  displacement: -8.5
- compound: "O=S1(=O)CCC(NC(=S)N/N=C/c2cccc3ccccc23)C1 (stereo unspecified)"
  units_text: "%"
  displacement: 5.1
- compound: "O=C(Nc1ccc(-c2nc3ccccc3s2)c(O)c1)c1ccc(-c2cccc([N+](=O)[O-])c2)o1"
  units_text: "%"
  displacement: 6.1
